target: Kappa-type opioid receptor (Homo sapiens)
Sequence (P41145 whole entry): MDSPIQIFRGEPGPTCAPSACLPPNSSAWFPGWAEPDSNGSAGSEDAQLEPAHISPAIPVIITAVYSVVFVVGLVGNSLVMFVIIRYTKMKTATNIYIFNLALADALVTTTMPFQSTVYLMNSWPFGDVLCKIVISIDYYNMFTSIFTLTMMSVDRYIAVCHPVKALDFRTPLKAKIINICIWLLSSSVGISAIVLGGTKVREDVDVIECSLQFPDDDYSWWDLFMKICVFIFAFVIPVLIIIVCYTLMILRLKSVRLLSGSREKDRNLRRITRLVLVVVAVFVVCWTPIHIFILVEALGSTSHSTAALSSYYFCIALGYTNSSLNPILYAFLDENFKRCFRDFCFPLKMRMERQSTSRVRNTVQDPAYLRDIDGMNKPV
Category scheme (Ki): bottom = under 2 nM, middle = from 2 nM up to 20 nM, top = 20 nM and over

> print(dat)
                           smiles.structure  class.assignment
1  CNC(=O)Nc1ccc2c(c1)[C@@]13CCCC[C@H]1[C@@H](C2)N(CC1CC1)CC3            middle
2  NC(=O)Nc1ccc2c(c1)[C@@]13CCCC[C@H]1[C@@H](C2)N(CC1CCC1)CC3            middle
3  Nc1nc2cc3c(cc2o1)[C@@]12CCCC[C@H]1[C@@H](C3)N(CC1CCC1)CC2            middle
4  Nc1ccc2c(c1)[C@@]13CCCC[C@H]1[C@@H](C2)N(CC1CC1)CC3            bottom
5  Nc1nc2cc3c(cc2o1)[C@@]12CCCC[C@H]1[C@@H](C3)N(CC1CC1)CC2               top
6  O=c1[nH]c2cc3c(cc2o1)[C@@]12CCCC[C@H]1[C@@H](C3)N(CC1CCC1)CC2            bottom
7  O=c1[nH]c2cc3c(cc2o1)[C@@]12CCCC[C@H]1[C@@H](C3)N(CC1CC1)CC2               top
8  NC(=O)Nc1ccc2c(c1)[C@@]13CCCC[C@H]1[C@@H](C2)N(CC1CC1)CC3            bottom

* * *

target: Kappa-type opioid receptor (Homo sapiens); test: Agonist activity at human kappa opioid receptor expressed in CHO cells assessed as stimulation of [35S]GTP-gamma-S binding after 60 mins
pEC50: −log10 of the molar value.
PROPERTY_LABEL: pEC50

> print(dat)
                           smiles.structure  property.label  value.measured
1  CNC(=O)Nc1ccc2c(c1)[C@@]13CCCC[C@H]1[C@@H](C2)N(CC1CC1)CC3           pEC50            8.08
2  NC(=O)Nc1ccc2c(c1)[C@@]13CCCC[C@H]1[C@@H](C2)N(CC1CC1)CC3           pEC50            7.48
3  NC(=O)Nc1ccc2c(c1)[C@@]13CCCC[C@H]1[C@@H](C2)N(CC1CCC1)CC3           pEC50            7.06

* * *

target: UniProt P35372
Sequence (P35372 whole entry): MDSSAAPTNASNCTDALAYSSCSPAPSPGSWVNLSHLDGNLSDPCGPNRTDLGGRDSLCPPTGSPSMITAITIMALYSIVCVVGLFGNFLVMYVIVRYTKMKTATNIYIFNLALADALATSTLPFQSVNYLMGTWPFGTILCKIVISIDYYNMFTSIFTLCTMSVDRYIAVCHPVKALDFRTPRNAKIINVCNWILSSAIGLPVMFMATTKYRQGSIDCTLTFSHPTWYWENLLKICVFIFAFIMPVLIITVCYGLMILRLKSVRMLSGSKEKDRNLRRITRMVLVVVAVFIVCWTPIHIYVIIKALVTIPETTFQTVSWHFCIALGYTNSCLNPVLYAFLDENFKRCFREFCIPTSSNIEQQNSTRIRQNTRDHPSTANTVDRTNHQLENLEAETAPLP
Criterion: Ki strictly less than 0.01 µM. Met: true. Not met: false.

> print(dat)
                           smiles.structure  class.assignment
1  NC(=O)Nc1ccc2c(c1)[C@@]13CCCC[C@H]1[C@@H](C2)N(CC1CCC1)CC3              true
2  O=c1[nH]c2cc3c(cc2o1)[C@@]12CCCC[C@H]1[C@@H](C3)N(CC1CC1)CC2             false
3  O=c1[nH]c2cc3c(cc2o1)[C@@]12CCCC[C@H]1[C@@H](C3)N(CC1CCC1)CC2              true
4  Nc1nc2cc3c(cc2o1)[C@@]12CCCC[C@H]1[C@@H](C3)N(CC1CCC1)CC2             false
5  CNC(=O)Nc1ccc2c(c1)[C@@]13CCCC[C@H]1[C@@H](C2)N(CC1CC1)CC3             false
6  NC(=O)Nc1ccc2c(c1)[C@@]13CCCC[C@H]1[C@@H](C2)N(CC1CC1)CC3              true
7  CNC(=O)Nc1ccc2c(c1)[C@@]13CCCC[C@H]1[C@@H](C2)N(CC1CCC1)CC3             false
8  Nc1ccc2c(c1)[C@@]13CCCC[C@H]1[C@@H](C2)N(CC1CC1)CC3              true
9  Nc1nc2cc3c(cc2o1)[C@@]12CCCC[C@H]1[C@@H](C3)N(CC1CC1)CC2             false

* * *

target: Delta-type opioid receptor (Homo sapiens, UniProt P41143); test: Displacement of [3H]naltrindole from human delta opioid receptor expressed in CHO membrane
Sequence (P41143 whole entry): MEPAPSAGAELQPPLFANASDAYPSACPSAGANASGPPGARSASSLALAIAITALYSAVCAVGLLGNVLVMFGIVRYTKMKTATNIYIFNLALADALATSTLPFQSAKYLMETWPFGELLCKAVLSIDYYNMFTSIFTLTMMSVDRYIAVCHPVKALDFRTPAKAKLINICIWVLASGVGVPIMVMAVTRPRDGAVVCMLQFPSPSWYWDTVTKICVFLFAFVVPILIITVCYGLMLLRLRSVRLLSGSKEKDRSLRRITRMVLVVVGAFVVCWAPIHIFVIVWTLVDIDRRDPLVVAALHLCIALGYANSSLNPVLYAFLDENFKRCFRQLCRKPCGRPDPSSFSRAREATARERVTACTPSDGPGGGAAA
Measured Ki of individual entries
PROPERTY_LABEL: Ki (nM)

> print(dat)
                           smiles.structure                               test.target  value.measured
1  O=c1[nH]c2cc3c(cc2o1)[C@@]12CCCC[C@H]1[C@@H](C3)N(CC1CCC1)CC2  Delta-type opioid receptor (Homo sapiens, UniProt P41143)             360
2  NC(=O)Nc1ccc2c(c1)[C@@]13CCCC[C@H]1[C@@H](C2)N(CC1CC1)CC3  Delta-type opioid receptor (Homo sapiens, UniProt P41143)              23
3  CNC(=O)Nc1ccc2c(c1)[C@@]13CCCC[C@H]1[C@@H](C2)N(CC1CC1)CC3  Delta-type opioid receptor (Homo sapiens, UniProt P41143)              50
4  CNC(=O)Nc1ccc2c(c1)[C@@]13CCCC[C@H]1[C@@H](C2)N(CC1CCC1)CC3  Delta-type opioid receptor (Homo sapiens, UniProt P41143)             270
5  NC(=O)Nc1ccc2c(c1)[C@@]13CCCC[C@H]1[C@@H](C2)N(CC1CCC1)CC3  Delta-type opioid receptor (Homo sapiens, UniProt P41143)             160
